Sourced from ChEMBL document CHEMBL4513216

Test: Toxicity liver stage against HepG2, at 10uM
Format: cell-based
Parameters: test concentration 10 uM, cell line HepG2-A16-CD81EGFP
Settings: human, HepG2-A16-CD81EGFP cells; read-out: INHIBITION
measurementType: cytotoxicity at 10 µM (%)
Response body: numeric value in %, unit text excluded.

Study these solved cases before continuing.
1. CCCc1n[nH]c(C2CN(CCS(=O)(=O)CC)CCO2)n1 (centres undefined)	-5.83
2. Cc1nnn2c1COCC(CNCc1nccs1)C2 (centres undefined)	-109
3. COc1ccc(-c2noc(CN3CC(n4cc(C)cn4)C3)n2)cc1	-5.97
4. c1cnc(C2CCCN2c2cnccn2)cn1 (centres undefined)	-22.6
5. CNc1cc(C)nc(NCc2cc(C)cc3c(C)c(C)[nH]c23)n1	-29

What does the data say about its cytotoxicity at 10 µM? Entry: O=C(O)c1cc(C=Cc2cccc3ccccc23)ncn1
-12.1

Check CCc1[nH]nc(NC(=O)c2cc[nH]n2)c1C too.
-3.98

Check COc1ncnc(N(C)C)c1NC(=O)Cc1cc(F)ccc1F too.
-2.67

Check COC(=O)c1ccc(C(=O)NCC2(O)CCOCC2)cc1 too.
-5.08

Check N#Cc1c(Cl)nsc1NCc1ccc(N2CCC(CO)CC2)cc1 too.
-4.73

Check COc1ccc(C2CC(=O)NCc3nc(N(C)C)sc32)c(O)c1 (centres undefined) too.
3.3

Check CSc1ccsc1C(=O)NS(=O)(=O)c1cccc(C#N)c1 too.
7.49

Check CC(=O)N1CCCC1c1csc(Nc2cnccn2)n1 (centres undefined) too.
2.09

Check CCc1n[nH]c(C2CN(C(=O)c3ccnc(N(C)C)c3)CCO2)n1 (centres undefined) too.
6.66

Check O=C(O)c1cc(-c2cccnc2)cc(S(=O)(=O)NCc2ccccn2)c1 too.
-49.9

* * *

Overview of reported cytotoxicity at 10 µM across a group of compounds:
Assay: Toxicity liver stage against HepG2, at 10uM
Assay type: cell-based
Parameters: test concentration 10 uM, cell line HepG2-A16-CD81EGFP
Conditions: human, HepG2-A16-CD81EGFP cells; read-out: INHIBITION
Response body: numeric value in %, unit text excluded.

Study these solved cases before continuing.
1. COCCCN1CC2(CCCCN2C(=O)c2ccsc2)CC1=O (configuration not stated)	5.03
2. CC(C)c1ccc(OCCC(=O)N2CCC(CC(N)=O)CC2)cc1	-14
3. O=S(=O)(c1ccc(-c2cnco2)cc1)N1CCC2(CCCNC2)C1 (configuration not stated)	-27.3
4. Cc1c[nH]nc1C1CCN(S(=O)(=O)N(C)C)C1 (configuration not stated)	-13

What does the data say about its cytotoxicity at 10 µM? Entry: Cc1cccnc1NC(=O)C(C)Cn1nc(C(F)(F)F)cc1C (configuration not stated)
5.89

Check CCOc1ncccc1C(=O)NCC(O)c1ccc(F)c(F)c1 (configuration not stated) too.
9.45

Check Cc1nc(NC(=O)C(C)N2CCN(c3ccccc3F)CC2)sc1C (configuration not stated) too.
-0.879

Check CCc1cnc(N)nc1N1CCCC2(CCOCC2)C1 too.
-135

Check NC(=O)C1CCCN1CCCc1ccc(Cl)cc1 (configuration not stated) too.
5.39

Check CN(Cc1ccccc1)c1cnn(CC2CCCCO2)c(=O)c1 (configuration not stated) too.
0.992

Check CCOC(=O)COc1ccc(C(C)=O)c(O)c1 too.
-19.3

Check Cc1c(CCC(=O)N2CCCC2c2ccnc(N(C)C)c2)cnn1C (configuration not stated) too.
0.469

* * *

Assay: Toxicity liver stage against HepG2, at 10uM
Format: cell-based
Parameters: test concentration 10 uM, cell line HepG2-A16-CD81EGFP
Details: human, HepG2-A16-CD81EGFP cells; read-out: INHIBITION
Overview of reported cytotoxicity at 10 µM across a group of compounds:
Response body: numeric value in %, unit text excluded.

Study these solved cases before continuing.
1. c1ccc(CN2CC[C@H]3CO[C@H](CNc4ncccn4)[C@H]3C2)nc1	-9.63
2. CCOc1ccc(CN2CCc3nc4ccsc4c(=O)n3CC2)cc1	-6.74
3. Cc1[nH]n(-c2ccccc2)c2nnc(N)c1-2	12.4
4. O=C(c1cccs1)N1CC[C@@H](N2CCOCC2)[C@@H]1Cc1ccccc1	-81.6
5. CC(C)Nc1ccc(-c2ccnc3c2ccn3C)nn1	-7.94

What does the data say about its cytotoxicity at 10 µM? Entry: O=C(NC1CCN(CC2CC2)C1)c1ccc(C(=O)c2cc[nH]c2)cc1 (stereo unspecified)
-6.14

Check Cc1ccc(NC2CCN(C(=O)Cc3c(C)nn(C)c3C)CC2)nn1 too.
-11.9

Check Cc1ccc([C@@H]2CN(C(=O)c3csc(C)n3)C[C@H]2NC(=O)C2CC2)cc1 too.
-5.99

Check CN(CCc1ccccc1)Cc1c(C2CCNCC2)[nH]c2ncccc12 too.
55.5

Check CN1CCC(Nc2cc(Cl)ccc2OCC(F)(F)F)C1=O (stereo unspecified) too.
-2.71

Check CCC(Nc1cccc(Oc2ccc(C#N)cc2)c1)C(N)=O (stereo unspecified) too.
38

* * *

Overview of reported cytotoxicity at 10 µM across a group of molecules:
Assay: Toxicity liver stage against HepG2, at 10uM
Format: cell-based
Set-up: test concentration 10 uM, cell line HepG2-A16-CD81EGFP
Conditions: human, HepG2-A16-CD81EGFP cells; read-out: INHIBITION
Response body: numeric value in %, unit text excluded.

1) CC(=O)Nc1nc(CN2CCOC(Cn3cccn3)C2)cs1 (stereo not drawn)	-5.69
2) CCCc1cc(NC2CCc3ncnn3C2)n2ncnc2n1 (stereo not drawn)	-4.17
3) Cn1nc(C(=O)NCc2ccccc2C(F)(F)F)c2c1CCS(=O)(=O)C2	5.37
4) COCc1ccccc1CNc1nnc(C)c(C)c1C#N	-2.48

What does the data say about its cytotoxicity at 10 µM? Entry: CC(C)c1cccc(-n2cc(O)c(C(=O)O)n2)c1
-4.49

Check CCc1ccc(CN2CCC3(CCCN(C(=O)c4cnccn4)C3)C2)o1 (stereo not drawn) too.
-127

Check O=C(Nc1ncn(CC(=O)N2CCCCCC2)n1)C1CCCO1 (stereo not drawn) too.
-4.56

Check NC(=O)[C@@H]1CCCN1C(=O)c1cn(C/C=C/c2ccccc2)nn1 too.
2.32

Check Cc1nc(CN2CCCN(C(=O)c3cccnc3O)CC2)cs1 too.
-8.51

Check Cc1nc(C)c(CC(=O)N2CCC(c3ccn4nccc4n3)CC2)s1 too.
-0.743

* * *

Experiment: Toxicity liver stage against HepG2, at 10uM
Type: cell-based
Parameters: test concentration 10 uM, cell line HepG2-A16-CD81EGFP
Conditions: human, HepG2-A16-CD81EGFP cells; read-out: INHIBITION
measurementType: cytotoxicity at 10 µM (%)
Response body: numeric value in %, unit text excluded.

1) Cc1nc(-c2cccc(C(=O)O)c2)cc(C2CCCN(C(C)C)C2)n1 (stereo unspecified)	-7.44
2) Cc1ccc(-c2nc(CN3CCCC3Cn3cncn3)cs2)o1 (stereo unspecified)	-7.88
3) CCS(=O)(=O)c1ncc(CN(C)Cc2ccc(C)o2)n1CCOC	-4.66

What does the data say about its cytotoxicity at 10 µM? Entry: NC1CCN(C(=O)c2cnc(Cc3c(Cl)cccc3Cl)nc2O)C1 (stereo unspecified)
-0.803

Check O=C1CCCc2cc(S(=O)(=O)NCc3ccccn3)ccc2N1 too.
2.41

Check N#Cc1ccc(F)cc1Cn1cnc(C2CCC2)cc1=O too.
15.4

* * *

Experiment: Toxicity liver stage against HepG2, at 10uM
Format: cell-based
Set-up: test concentration 10 uM, cell line HepG2-A16-CD81EGFP
Settings: human, HepG2-A16-CD81EGFP cells; read-out: INHIBITION
Overview of reported cytotoxicity at 10 µM across a group of compounds:
Response body: numeric value in %, unit text excluded.

Study these solved cases before continuing.
1. Cc1nnc(N2CCOC(C)C2)c(C#N)c1C (stereo unspecified)	-11.7
2. COc1ccc(C(=O)NS(C)(=O)=O)cc1-c1ccccc1	-0.0142
3. FC(F)(F)COc1cccc(-c2nc3c([nH]2)CCNC3)c1	4.5
4. CCCc1cnc(C)nc1N1CCC(Cn2cc(CO)nn2)CC1	-4.57
5. COc1ccc(OCCN(C)Cc2nc3c(cnn3C)c(=O)[nH]2)cc1	-4.03

Now for a further compound.
What does the data say about its cytotoxicity at 10 µM? Entry: CCOc1ccc(N(C)Cc2nc(C)c(C)o2)cc1
19.9

* * *

Test: Toxicity liver stage against HepG2, at 10uM
Format: cell-based
Set-up: test concentration 10 uM, cell line HepG2-A16-CD81EGFP
Details: human, HepG2-A16-CD81EGFP cells; read-out: INHIBITION
Overview of reported cytotoxicity at 10 µM across a group of compounds:
Response body: numeric value in %, unit text excluded.

1. COCC1CC2(CCN(C(=O)c3ccc(F)cc3C)CC2)CO1 (configuration not stated)	-108
2. CCOC(=O)[C@]12CCCN(Cc3ccco3)C[C@H]1CN(S(C)(=O)=O)C2	6.86
3. Cc1nc(N2CCCCC2)ncc1-c1cc(=O)[nH]c(N2CCCC2)n1	1

What does the data say about its cytotoxicity at 10 µM? Entry: Cn1cccc1C(O)CNS(=O)(=O)c1ccccc1F (configuration not stated)
-14.6

Check c1ccc(CN2CCC(NCCSc3ncn[nH]3)C2)cc1 (configuration not stated) too.
-2.76

Check Cc1nc(CN2CCC(NS(C)(=O)=O)CC2)co1 too.
-12.4

Check CC(c1nncn1C)n1cc(-c2cc(CN3CCCC3)cs2)nn1 (configuration not stated) too.
2.04

Check Cc1nn(C)c2ncc(S(=O)(=O)N3CCCC(C(N)=O)C3)cc12 (configuration not stated) too.
3.45

Check COCc1nccc(C2CCCN(Cc3cccc(C#N)c3)C2)n1 (configuration not stated) too.
18.7
